tested on: MS2 coat protein; test: apparent KD of MS2 coat protein; designed switch direction (-1 OFF switch, 1 ON switch): -1; higher = weaker reporter binding; details: input ligand: microRNA oligo, concentration not stated
Recorded apparent KD of MS2 coat protein for the following sequences
# number only, unit nM dropped from output

**Q:** Form field: reported apparent KD of MS2 coat protein of UUAAUUAAUUGACUGCAAGAUCAACAUGAGGAUCACCCAUGUGAGGAUAUCAGCUCGUGUAGAGCUGAGAAGGCACAAGCAGUC [ExNG3/16-A3] (Eterna round: R96, puzzle: Exclusion NG 3)
**A:** 13.4

**Q:** Also need CUAAAUCAUGUAGGAUAUGCGUGGCAAAGCUAUGCAGAAGGACAUGAGGAUCACCCAUGUGCUUCCGUCUGAGAACAGACGGUA [Mat - Exclusion NG 1 - Mod of JL - D23] (Eterna round: R96, puzzle: Exclusion NG 1) , thanks.
**A:** 49.6

**Q:** Also need ACGCAUUGCCAAAGGUAAUGCGUUACAUGAGGAUCACCCAUGUAGGAUAUGGUAGGCAAAGCUUACCAGAAGGACAUGAUAAUU [Mat - Exclusion NG 3 - Mod of JL - D7] (Eterna round: R96, puzzle: Exclusion NG 3) , thanks.
**A:** 40

* * *

test system: K4 kissing-loop RNA reporter; assay: apparent KD of K4 kissing-loop reporter; higher = weaker reporter binding; conditions: Eterna round: R107; input ligand: none;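 note: bound reporter read as fluorescence of individual clusters on recovered sequencing chips by microscopy, with normalized cluster intensities fitted with a binding model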
Category | rule: reported apparent KD of K4 kissing-loop reporter within range, see low interval (below 200 nM), middle interval (200 nM to below 400 nM), high interval (400 nM or more)

The following sequences have reported results that may help.
CACCGCAACUGAAGGAGCGCGCCAGUGAUGUUGGACGGCUUUGUCAAGGAAACUGCACCGGUGCAGGUAGGUCGCAGUUCGCGGC [Ededisa]: middle interval
CGCAGUGAUGUUGCGAACAUAAUGCAUUCAGAGGAUAUUCGUUUGGGAAGAAGGCUGAAUCGUUUUUCGAGUGAUGUUUGAGGAA [Same State FMN A GF 18]: low interval
UGAUACCAGACGGCCGCCACUCCCGCAGGUCAAAGACCUGCGAAGAAGGUUCUUUAGUGAUGUUGGAGGACCGGGUCUGGUAUCU [FiskerMod 21 - Jieux - Exclusion - Tryptophan B]: high interval

**Q:** Textbook exercise: identify the category of the sequence given here, UGAUACCAGACGGCCGCCACUGCACCAGUCAAUGACUGAGCGCGGUGGCGCUCAGUGAUGUUGAGCAGGACCGGGUCUGGUAUCU [Mod of Eli's TrypBX 8 v4] , according to its measured value.
**A:** low interval

**Q:** Also need CGGAUGUAGUGAUGUUAUAUAAGAUGUAGACGAGGACCGGUACGGCCGCCACUCGAAACGGCUACUAGCGCGUUGCGAGGUGUGC [ExTryptoA.CI] , thanks.
**A:** high interval

**Q:** Also need AAUUUAGUGACGGCCGCCACUAUGGUGAUUUAUUUGUUUGAGUGAUGUUUUGAUGUUUGAUUUUGUAGGACCGGGUUAGGUGAUG [aaacmullin] , thanks.
**A:** middle interval

**Q:** Also need GUGCAGUGAUGUUGCACGAGGAAAGACGAUACCAGCCGUAAAUAAGGCCCUUGGCAGCGUAGGCUAGCAUAAAGUACGCUAGUCC [Enarines] , thanks.
**A:** low interval

**Q:** Also need GUGAAGGAGCAGCAGUGAUGUUGCUGAGACUAGGAUAUCAGGAAACUGAGAAGGAGUCAACUCCUUCACCUAGACUGCAACAUAA [KL-SSFMN-A13] , thanks.
**A:** low interval

**Q:** Also need UUUCUACCGGGAAGGAGCGUGAAUGAUAAUGGAUAUAGUGAUGUUAUAUAUACGAACGAAUCGCAGGUAGGUCGCCCGGAUCACU [SSArgB.U] , thanks.
**A:** high interval

**Q:** Also need ACUUAUUGUGUCGAUACCAGCAGGUGACGACGCCUCAUGGCUGACGAGUGAUGUUCGACUUGCCCUUGGCAGCGACAUACGCCGG [theeternabot_sameState_KL_Theo_B_12] , thanks.
**A:** middle interval

**Q:** Also need UGAUACCAGACGGCCGCCACUUCUGCAAGUCAAAGACUUGCUAAAGGAAUCGUCCAGUGAUGUUGGAGGACCGGGUCUGGUAUCU [FiskerMod 1 - Jieux - Exclusion - Tryptophan B] , thanks.
**A:** high interval

**Q:** Also need GGGCGUUACGGAGUGAUGUUCCGUAGCGAUACCAGCCAUUGCGAUGGCCCUUGGCAGCGCUAUAAGCAUAGAAUUGUAGCGCUUA [Theo A Ex t7b] , thanks.
**A:** low interval

**Q:** Also need GGUUCCUCAGUGAUGUUGAGGUGACCUCGGCAGGAUAUAGGCAUUACUAGAAGGGCCAAAAGAACCCUGUCCAGCGACACAGGGA [Zalatiat] , thanks.
**A:** middle interval

**Q:** Also need AAAAUAAUCCAGUGAUGUUGGUUUCCAGAUACCAGCGACGAAAGUCGCCCUUGGCAGCUGUGGACGUACAAAAUAAGUACGUCCU , thanks.
**A:** middle interval

**Q:** Also need ACACUAUCGUCAUAGACGGUAGUGAAAGCUCAGGAUAUGAGUGAUGUUAGAAGGGAGUAAAUCUUAGGUAUCGAAUAGAUACCAA [FmnA 7 #K4BetweenAptamer #OpenEnded] , thanks.
**A:** high interval

**Q:** Also need CCCGGUCCACGAAGGAGCGCCGUGCAGUGAUGUUGCAGUUAGAUCCAGUGAUGUUUGGGCCGGCAGGUAGGUCGCGUGGCCCGGG [Excusion Arginine B GF 24] , thanks.
**A:** middle interval

* * *

test system: MS2 coat protein; assay: apparent KD of MS2 coat protein; higher = weaker reporter binding; settings: Eterna round: R101; input ligand: none
parameter: apparent KD of MS2 coat protein (nM)
# number only, unit nM dropped from output

GUUGGAUUUCAGAAGGGCUCCAGCAAAGCUGGAGCAGGAUAUGAGGAUCACCCAUAUCAAUCUCCAGAAUUGAUAUGAAUCAAU [#SharedSequence - IExNG1: 9-1] (puzzle (switch architecture): Inverted Exclusion NG 1): 29.2

**Q:** Form field: reported apparent KD of MS2 coat protein of AGAGCUGCUCAGAAGGAGGAUCACCCUUUCGAAAGAAAUACGGAGGCUGAAAAGCCUCCGAGAUUUUAGGAUAUGAGCAGCUCA [#SharedSequence - IExNG2: 8] (puzzle (switch architecture): Inverted Exclusion NG 2)
**A:** 74.5

**Q:** Also need GCAGCUAAUGCAGGAUAUCAGCACGUGUAGUGCUGAGAAGGGCACAUGAGGAUUCUGACUGUGAUCAAUUAAUAUUAAUGCUGC [salish99#hingeEx3_55-58_005] (puzzle (switch architecture): Exclusion NG 1) , thanks.
**A:** 29.2

**Q:** Also need AAAUGAUAUCAGAAGGCGUGGACGAAACGUCCACGAGGAUAUGAGGAUCACCCAUAUCAGGUCAGCCUGCAAAGCAGGCUGACC [#SharedSequence - IExNG1: 7-2] (puzzle (switch architecture): Inverted Exclusion NG 1) , thanks.
**A:** 15.6

**Q:** Also need AUCAGCUCGUGAGGAUAUACGUCACUGCGUCAGCAGUGUGGUAAGAUCACAUGAGGAUCACCCAUGUAGAAGGCACGAGCUGAU [#FlippingAptamerGcClosingBasepair - Ex NG2 #82] (puzzle (switch architecture): Exclusion NG 2) , thanks.
**A:** 23.6

**Q:** Also need AGCUAUGACAUGAGGAUCACCCAUGUAUACAUGGGAUUGACGUAGGAUAUGCUGAAGAUUAAAGUGCAGAAGGACGGCUUAGCG [JR #DistanceFar #Hairpin #NP SSNG3 Sub065] (puzzle (switch architecture): Same State NG 3) , thanks.
**A:** 1250

**Q:** Also need AAAUAAUCCUCAGGAUAUGACUCCGAAACGGAGUCAGAAGGGAGGAUCACCCUCUUCAGCUCAGCGUCGAAAGACGCUGAGCAA [#SharedSequence ExNG1 - 23] (puzzle (switch architecture): Exclusion NG 1) , thanks.
**A:** 863

**Q:** Also need UCAGUAGAGUCAGGAUAUACAAAAGGCGAUCCAUACAUGAGGAUCACCCAUGUAGAAGGGACUCUACUGUAAGUCGGAAACGAC [#StaticStemDeletion - Eli x2 4.003] (puzzle (switch architecture): Small Loop Exclusion NG 1) , thanks.
**A:** 165

**Q:** Also need GCCAUCGCAUGAGGAUAUGCUCGGGUUUCCCGAGCAGAAGGCAUGUCAUAAGACAUGAGGAUCACCCAUGUAGUUAAGAUGGCA [#HiddenHairpinInALoop - Mat - Same State NG 1 - JL mod - D3] (puzzle (switch architecture): Same State NG 1) , thanks.
**A:** 289
